Target: Adenosine receptor A3 (Homo sapiens, UniProt P0DMS8)
Assay: Displacement of [3H]MRE3008-F20 from human adenosine A3 receptor expressed in CHO cells; range 34-76
Assay type: cell-based
attribute-measured: pKi
One number for each entry, as −log10 of the molar value.

Value lookup for pKi; key = `O=C(Nc1cccc(Cl)c1)Nc1nc2nn(CCc3cccc4ccccc34)cc2c2nc(-c3ccco3)nn12`
7.29

---

Molecular target: Adenosine receptor A3 (Homo sapiens)
Sequence (P0DMS8 whole entry): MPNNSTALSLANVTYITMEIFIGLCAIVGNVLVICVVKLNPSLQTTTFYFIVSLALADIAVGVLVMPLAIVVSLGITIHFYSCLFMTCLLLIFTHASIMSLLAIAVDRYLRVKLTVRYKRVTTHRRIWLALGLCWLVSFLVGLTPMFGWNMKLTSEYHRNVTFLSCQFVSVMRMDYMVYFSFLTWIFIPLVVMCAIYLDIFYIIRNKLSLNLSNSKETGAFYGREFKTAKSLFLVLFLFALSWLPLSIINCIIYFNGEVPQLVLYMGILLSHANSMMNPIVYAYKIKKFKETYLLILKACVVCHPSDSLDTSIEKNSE
Experiment: Displacement of [3H]MRE3008-F20 from human adenosine A3 receptor expressed in CHO cells; range 0.85-0.98
Format: cell-based
attribute-measured: pKi
One number for each entry, as −log10 of the molar value.

Value lookup for pKi; key = `CCCn1cc2c(nc(NC(=O)Nc3cccc(Cl)c3)n3nc(-c4ccco4)nc23)n1`
9.05
